READOUT LABEL: melting point

{"columns": ["MOLECULE", "VALUE MEASURED"],
 "data": [
  ["Cc1cnnc2c1C(=NNC(=N)N)CC(c1ccccc1Cl)C2.Cl (stereo not shown)", "241 to 243 °C"],
  ["Cc1ccc(C)c(C2CC(=NNC(=N)NO)c3c(C)ccnc3C2)c1.Cl (stereo not shown)", "190 to 192 °C (dec.)"],
  ["Cc1coc2c1/C(=N/NC(=N)N)CC(c1ccc(F)cc1)C2.Cl (stereo not shown)", "277 °C (dec.)"],
  ["Cc1ccnc2c1C(=NNC(=N)NO)CC(c1ccsc1Br)C2.Cl (stereo not shown)", "197 to 198 °C"],
  ["Cc1cc(Cl)c(C2CC(=NNC(=N)N)c3c(C)ccnc3C2)s1.Cl (stereo not shown)", "198 to 200 °C"],
  ["Cc1cc(=O)[nH]c2c1C(=NNC(=N)N)CC(c1ccsc1)C2.Cl (stereo not shown)", "≥ 300 °C"],
  ["Cc1coc2c1/C(=N/NC(=N)N)CC(c1cccc(Br)c1)C2.Cl (stereo not shown)", "285 °C (dec.)"],
  ["Cc1ccnc2c1C(=NNC(=N)N)CC(c1ccsc1Br)C2.Cl (stereo not shown)", "243 to 245 °C"],
  ["Cc1cc(C)c2c(n1)CC(c1ccccc1F)CC2=NNC(=N)N.Cl (stereo not shown)", "232 °C (dec.)"],
  ["Cc1ccc2c(n1)CC(c1ccccc1)CC2=NNC(=N)N.Cl (stereo not shown)", "≥ 300 °C"],
  ["Cc1ccc(C)c(C2C/C(=N\\NC(=N)N)c3c(C)coc3C2)c1.Cl (stereo not shown)", "235 to 236 °C"],
  ["Cc1ccnc2c1C(=NNC(=N)NO)CC(c1cccc(Cl)c1Cl)C2.Cl (stereo not shown)", "196 to 198 °C (dec.)"],
  ["Cc1c2c(nn1-c1ccccc1)CC(c1ccccc1Cl)CC2=NNC(=N)N.Cl (stereo not shown)", "192 to 194 °C"],
  ["CS(=O)(=O)O.Cc1ccnc2c1C(=NNC(=N)N)CC(c1cc(Cl)sc1Cl)C2.O (stereo not shown) (hydrate or solvate)", "239 to 241 °C"],
  ["Cc1cn(S(C)(=O)=O)c2c1C(=NNC(=N)N)CC(c1ccccc1)C2.Cl (stereo not shown)", "260 °C (dec.)"],
  ["Cc1coc2c1/C(=N/NC(=N)N)CC(c1ccccc1C(F)(F)F)C2.Cl (stereo not shown)", "275 °C (dec.)"],
  ["Cc1coc2c1C(=NNC(=N)N)CC(c1ccc(Br)cc1)C2.Cl (stereo not shown)", "235 °C (dec.)"],
  ["Cc1ccnc2c1C(=NNC(=N)N)CC(c1ccco1)C2.Cl (stereo not shown)", "≥ 300 °C"],
  ["Cc1cc[n+]([O-])c2c1C(=NNC(=N)N)CC(c1cc(Cl)sc1Cl)C2.Cl (stereo not shown)", "≥ 300 °C"]
]}
